Test system: HCT8/ABCB1 cells (ABCB1-transfected)
Assay: cells
Conditions: Homo sapiens, HCT-8, 48 h, read-out: IC50 of DOX
ASSAY METRIC: IC50 (µM)
Write the number in µM without appending the unit.

*Q* Given the entry COc1cccc2c1C(=O)c1c(O)c3c(c(O)c1C2=O)C[C@@](O)(C(=O)CO)C[C@@H]3O[C@H]1C[C@H](N)[C@H](O)[C@H](C)O1 , what IC50 was observed with HCT8/ABCB1 cells (ABCB1-transfected)?
*A* 13.3

====

System: LoVo/ADR cells (ABCB1-overexpressing)
Experiment: cells
Details: Homo sapiens, read-out: IC50 of MIT
ASSAY METRIC: pIC50
Convention used: pIC50 is expressed as -log10 of the molar concentration.

*Q* Recorded pIC50 for O=C1c2c(O)ccc(O)c2C(=O)c2c(NCCNCCO)ccc(NCCNCCO)c21 [MIT, mitoxantrone] , please?
*A* 5.91
